# target_or_system: Coagulation factor IX (Homo sapiens, UniProt P00740)
# Sequence (P00740 47-191 limits assumed): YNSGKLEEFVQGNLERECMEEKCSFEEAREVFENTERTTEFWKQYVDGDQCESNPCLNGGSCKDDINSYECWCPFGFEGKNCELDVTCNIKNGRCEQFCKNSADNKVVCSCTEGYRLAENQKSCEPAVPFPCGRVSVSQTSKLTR
# Sequence (P00740 227-461 limits assumed): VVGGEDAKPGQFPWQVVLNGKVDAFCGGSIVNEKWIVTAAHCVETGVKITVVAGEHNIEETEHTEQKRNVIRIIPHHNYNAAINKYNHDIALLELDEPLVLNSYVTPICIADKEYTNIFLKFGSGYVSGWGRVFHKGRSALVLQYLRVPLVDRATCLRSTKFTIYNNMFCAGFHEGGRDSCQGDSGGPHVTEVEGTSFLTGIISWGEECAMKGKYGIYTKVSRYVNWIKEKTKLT
# Type: single protein
pIC50: −log10 of the molar value.
experimental_readout: pIC50

{"columns": ["item_smiles", "assay_result"],
 "data": [
  ["CC(C)c1cc(CCN2CCc3cccc(C(=O)O)c32)cc(-c2ccc3c(c2)[C@H](N)CO3)c1", 5.48]
]}

(1) COc1cccc(C(=O)O)c1OCCc1cc(-c2ccc3c(c2)[C@H](N)CO3)cc(C(C)C)c1
(2) CC1(C)COc2c(COc3ccccc3CC(=O)O)cc(-c3ccc4c(c3)[C@H](N)CO4)cc21
(3) CC1(C)COc2c(COc3ccccc3CC(=O)O)cc(-c3ccc4c(c3)[C@H](N)CCO4)cc21
Lookup: Arrange the 3 compounds from largest to smallest pIC50. Write the labels, ordered according to the request.
Found: 2, 3, 1
